Entry source: ChEMBL document CHEMBL1152965

experiment: Selectivity index, ratio of IC50 for human K562 cells to IC50 for chloroquine, pyrimethamine and proguanil-resistant Plasmodium falciparum W2; assay type: toxicity, cell-based; settings: K562 cells (cytotoxicity) versus Plasmodium falciparum W2, read-out: Ratio IC50
PARAMETER: selectivity ratio

Item ClC(Cl)(Cl)c1nc(N2CCOCC2)c2ccccc2n1 has what recorded selectivity ratio?
> 8.4

Item O=[N+]([O-])c1ccccc1Nc1nc(C(Cl)(Cl)Cl)nc2ccccc12 has what recorded selectivity ratio?
> 20

Item ClC(Cl)(Cl)c1nc(Nc2ccccc2)c2ccccc2n1 has what recorded selectivity ratio?
> 4.5

Item Clc1ccc(Cl)c(Nc2nc(C(Cl)(Cl)Cl)nc3ccccc23)c1 has what recorded selectivity ratio?
> 4.7

Item Clc1ccccc1Nc1nc(C(Cl)(Cl)Cl)nc2ccccc12 has what recorded selectivity ratio?
> 10.9

Item Fc1ccc(Nc2nc(C(Cl)(Cl)Cl)nc3ccccc23)cc1 has what recorded selectivity ratio?
> 23.1

Item ClC(Cl)(Cl)c1nc(Nc2cccc(Br)c2)c2ccccc2n1 has what recorded selectivity ratio?
> 22.7

Item CCCCNc1nc(C(Cl)(Cl)Cl)nc2ccccc12 has what recorded selectivity ratio?
> 3.5

Item Clc1cccc(Nc2nc(C(Cl)(Cl)Cl)nc3ccccc23)c1Cl has what recorded selectivity ratio?
> 4.3

Item ClC(Cl)(Cl)c1nc(Nc2ccccc2Br)c2ccccc2n1 has what recorded selectivity ratio?
> 10

Item ClC(Cl)(Cl)c1nc(N2CCCC2)c2ccccc2n1 has what recorded selectivity ratio?
> 3

Item ClC(Cl)(Cl)c1nc(NCc2ccccc2)c2ccccc2n1 has what recorded selectivity ratio?
> 7.2

Item ClC(Cl)(Cl)c1nc(NC2CCCCCC2)c2ccccc2n1 has what recorded selectivity ratio?
> 9.8

###

system: K562; assay: Cytotoxicity against human K562 cells after 72 hrs by flow cytometry; format: cell-based; settings: K562, 72 h
PARAMETER: IC50

Item Fc1ccc(Nc2nc(C(Cl)(Cl)Cl)nc3ccccc23)cc1 has what recorded IC50?
> 125 µM

Item ClC(Cl)(Cl)c1nc(Nc2ccccc2Br)c2ccccc2n1 has what recorded IC50?
> 30 µM

Item Clc1cccc(Nc2nc(C(Cl)(Cl)Cl)nc3ccccc23)c1 has what recorded IC50?
> 50 µM

Item ClC(Cl)(Cl)c1nc(Nc2ccccc2)c2ccccc2n1 has what recorded IC50?
> 50 µM
